All values here come from patent US20250197372A1.

Measurement Target: recombinant alpha-glucosidase I (human full-length glucosidase I, Glu 1) (Homo sapiens)
Construct: 6-His (C); made in house; host or cells: HEK-293T cells transduced with BacMam virus (virus raised in Sf9)
Sequence (Q13724 1-837): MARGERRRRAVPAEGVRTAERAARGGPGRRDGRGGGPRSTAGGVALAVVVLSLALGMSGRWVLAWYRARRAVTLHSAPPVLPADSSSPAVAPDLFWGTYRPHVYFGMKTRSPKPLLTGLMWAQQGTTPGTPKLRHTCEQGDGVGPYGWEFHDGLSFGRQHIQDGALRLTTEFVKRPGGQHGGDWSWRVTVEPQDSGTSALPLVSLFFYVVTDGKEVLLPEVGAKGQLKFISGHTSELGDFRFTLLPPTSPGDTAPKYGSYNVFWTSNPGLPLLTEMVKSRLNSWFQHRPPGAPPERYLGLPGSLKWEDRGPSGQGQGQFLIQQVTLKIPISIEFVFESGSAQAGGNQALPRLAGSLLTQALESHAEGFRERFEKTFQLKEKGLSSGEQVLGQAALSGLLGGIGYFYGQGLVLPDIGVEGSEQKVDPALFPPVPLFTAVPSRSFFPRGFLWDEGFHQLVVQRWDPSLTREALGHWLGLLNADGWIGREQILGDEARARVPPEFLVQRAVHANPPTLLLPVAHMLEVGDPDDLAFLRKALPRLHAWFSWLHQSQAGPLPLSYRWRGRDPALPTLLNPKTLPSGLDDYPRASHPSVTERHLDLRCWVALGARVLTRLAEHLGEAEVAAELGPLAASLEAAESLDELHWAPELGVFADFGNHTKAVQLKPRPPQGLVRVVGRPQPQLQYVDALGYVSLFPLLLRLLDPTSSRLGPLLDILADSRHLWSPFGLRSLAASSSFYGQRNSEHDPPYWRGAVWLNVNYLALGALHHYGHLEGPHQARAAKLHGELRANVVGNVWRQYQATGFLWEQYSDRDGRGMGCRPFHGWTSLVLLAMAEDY
Experiment Summary: Alpha-glucosidase I assay (Amplex Red glucose detection, synthetic trisaccharide substrate)
Type: biochemical
Recorded Conditions: Glucosidase 1; read-out: Glu 1 IC50
Method: Preparation of Human Full-length Glucosidase I: The amino acid sequence for human full-length glucosidase I was obtained from UniProt (Q13724). […] The entry vector was cloned into Kemp Proteins' BacMam Destination vector and transformed into chemically competent DH10Bac E. coli cells to produce recombinant glucosidase I bacmids. […] Soluble glucosidase I was detected by anti-His western blots in the soluble cell extract following extraction with 1% V/V NP40 for 30 minutes at 0° C. […]
Entries annotated with measured IC50
Reported Endpoint: IC50 (nM)

compound="OC[C@@H]1[C@@H](O)[C@H](O)[C@@H](O)CN1Cc1ccc(CNc2ccc(-c3ccc[nH]3)cc2)cc1 [Compound 1094]" operator_symbol== numeric_value=28
compound="O=[N+]([O-])c1cc(-c2ncco2)ccc1NCCc1ccc(CCN2C[C@H](O)[C@@H](O)[C@H](O)[C@H]2CO)cc1 [Compound 1112]" operator_symbol== numeric_value=89
compound="Nc1ccc(NCCn2cc(CCN3C[C@H](O)[C@@H](O)[C@H](O)[C@H]3CO)nn2)c([N+](=O)[O-])c1Cl [Compound 1253]" operator_symbol== numeric_value=1750
compound="CN(C)Cc1ccc(NCCCCCCN2C[C@H](O)[C@@H](O)[C@H](O)[C@H]2CO)c(C(=O)O)c1 [Compound 1245]" operator_symbol== numeric_value=292
compound="[N-]=[N+]=Nc1ccc(NCc2cc(CCN3C[C@H](O)[C@@H](O)[C@H](O)[C@H]3CO)cs2)c([N+](=O)[O-])c1 [Compound 1174]" operator_symbol== numeric_value=531
compound="O=[N+]([O-])c1cc(-c2cccnn2)ccc1NCc1ccc(CN2C[C@H](O)[C@@H](O)[C@H](O)[C@H]2CO)cc1 [Compound 1101]" operator_symbol=< numeric_value=1
compound="OC[C@@H]1[C@@H](O)[C@H](O)[C@@H](O)CN1CCc1ccc(CCNc2cc(Cl)cc(C3=COCCO3)c2)cc1 [Compound 1161]" operator_symbol== numeric_value=729
compound="O=Cc1cc(NCCCCCCN2C[C@H](O)[C@@H](O)[C@H](O)[C@H]2CO)cc(-c2ncccn2)c1 [Compound 1129]" operator_symbol== numeric_value=148
compound="CN(Cc1ccc(CN2C[C@H](O)[C@@H](O)[C@H](O)[C@H]2CO)cc1)c1cc(-c2cccnn2)cc(C2CC2)c1 [Compound 1001]" operator_symbol== numeric_value=13
compound="Nc1ccc(NCCc2ccccc2CCN2C[C@H](O)[C@@H](O)[C@H](O)[C@H]2CO)c([N+](=O)[O-])c1Cl [Compound 1239]" operator_symbol== numeric_value=1440
compound="COc1cc(NCCCCCCN2C[C@H](O)[C@@H](O)[C@H](O)[C@H]2CO)cc(-c2ccccc2)c1 [Compound 1150]" operator_symbol== numeric_value=80
compound="OC[C@@H]1[C@@H](O)[C@H](O)[C@@H](O)CN1CCCCCCCCC1CNCCO1 (some centres unmarked) [Compound 1311]" operator_symbol== numeric_value=1760
compound="[N-]=[N+]=Nc1ccc(NCCc2ccc(CCN3C[C@H](O)[C@@H](O)[C@H](O)[C@H]3CO)c3c2OCCO3)c([N+](=O)[O-])c1 [Compound 1173]" operator_symbol== numeric_value=157
compound="OC[C@@H]1[C@@H](O)[C@H](O)[C@@H](O)CN1Cc1cccc(CNc2ccc(C3=COCCO3)cc2)c1 [Compound 1066]" operator_symbol== numeric_value=69
